target: Serine/threonine-protein kinase PLK3 (Homo sapiens) (UniProt Q9H4B4); assay: Inhibition of PLK3 (unknown origin) at 10 uM
Sequence (Q9H4B4 whole entry, looked up): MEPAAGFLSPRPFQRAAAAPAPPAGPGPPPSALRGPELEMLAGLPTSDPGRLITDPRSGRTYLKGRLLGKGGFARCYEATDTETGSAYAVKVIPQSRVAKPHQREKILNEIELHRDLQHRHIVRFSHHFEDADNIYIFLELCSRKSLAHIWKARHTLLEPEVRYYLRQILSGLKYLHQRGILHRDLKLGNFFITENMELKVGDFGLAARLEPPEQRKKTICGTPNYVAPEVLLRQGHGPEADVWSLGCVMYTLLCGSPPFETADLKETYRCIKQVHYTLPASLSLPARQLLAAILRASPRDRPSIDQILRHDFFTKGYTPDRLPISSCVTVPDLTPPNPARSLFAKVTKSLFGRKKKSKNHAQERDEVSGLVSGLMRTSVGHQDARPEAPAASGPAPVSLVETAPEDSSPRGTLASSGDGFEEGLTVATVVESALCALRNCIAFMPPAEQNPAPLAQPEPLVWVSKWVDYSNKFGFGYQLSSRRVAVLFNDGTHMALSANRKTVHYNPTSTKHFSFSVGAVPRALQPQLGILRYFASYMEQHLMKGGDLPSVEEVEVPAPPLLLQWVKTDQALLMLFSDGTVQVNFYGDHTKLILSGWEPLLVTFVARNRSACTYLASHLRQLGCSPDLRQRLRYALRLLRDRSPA
Could you please report measured inhibition for the items listed next?
One number for each entry, in %.

Please review the following examples before continuing.
CN1CCN(CCCNc2ncc3cc(Oc4ccc(F)cc4F)c(=O)n(C)c3n2)CC1 = 0
Cn1c(=O)c(Oc2ccc(F)cc2F)cc2cnc(Nc3ccc(N4CCC(O)CC4)cc3)nc21 = 33

For the next question, use this compound.
inhibition reported for this compound `CN(C)CCNc1ncc2cc(Oc3ccc(F)cc3F)c(=O)n(C)c2n1` : 0

---

molecular target: Protein kinase C alpha type (Homo sapiens) (UniProt P17252); assay: Inhibition of PKCalpha (unknown origin) at 10 uM
What inhibition was measured for each of the following?
Give bare numbers, in %.

CN1CCN(c2ccc(Nc3ncc4cc(Oc5ccc(F)cc5F)c(=O)n(C)c4n3)cc2)CC1 = 12
Cn1c(=O)c(Oc2c(Cl)cccc2Cl)cc2cnc(NC3CCOCC3)nc21 = 5

Read the next record carefully.
Recorded result, `CN(C)CCNc1ncc2cc(Oc3ccc(F)cc3F)c(=O)n(C)c2n1` , inhibition: 0
